src = patent US20240376151A1

targetOrTestSystem: beta-catenin (Homo sapiens, UniProt P35222)
Construct: made in house; host or cells: E. coli BL21 (DE3) pLysS
Sequence (P35222 134-665): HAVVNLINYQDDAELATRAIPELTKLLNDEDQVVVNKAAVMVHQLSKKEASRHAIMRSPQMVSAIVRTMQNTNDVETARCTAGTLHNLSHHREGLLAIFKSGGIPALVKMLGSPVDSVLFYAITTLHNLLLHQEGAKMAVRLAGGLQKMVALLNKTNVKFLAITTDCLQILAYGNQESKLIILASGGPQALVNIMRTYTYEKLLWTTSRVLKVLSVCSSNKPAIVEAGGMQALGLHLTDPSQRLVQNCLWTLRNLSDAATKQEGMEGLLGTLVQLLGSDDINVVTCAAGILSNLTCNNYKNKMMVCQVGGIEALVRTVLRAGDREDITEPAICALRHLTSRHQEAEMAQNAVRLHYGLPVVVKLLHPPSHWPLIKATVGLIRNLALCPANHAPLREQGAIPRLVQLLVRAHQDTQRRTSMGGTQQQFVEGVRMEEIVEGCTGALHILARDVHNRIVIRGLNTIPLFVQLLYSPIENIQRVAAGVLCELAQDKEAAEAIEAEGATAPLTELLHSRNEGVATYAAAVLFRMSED
assayText: Phage Library Screening with NGS, beta-catenin
Assay type: binding
settings: beta-catenin target concentration 10; no competitor
reportedEndpoint: Target Concentration 10 (phage screen NGS readout)

Study these solved cases before continuing.
chain	measured
DPAALSCYQAAFHCQYY	0
DPADTECILAAHFCHYF	0
DPADWICEHAALTCQEF	0
DPAEVECMLAAHVCRAF	8
DPASWRCEHAALNCQID	0

[I] DPAVLECHIAAWECNHT
[II] DPARHECILAAHICEWE
Q: Pick one: I or II . Which one has the lower reported Target Concentration 10 (phage screen NGS readout)? Let me know the label of the one you choose.
Result: I
(I: 0, II: 41)

[A] DPAVFECSLAAIDCLQI
[B] DPAADDCVLAAHVCAYF
[C] DPAEWQCEHAALLCEQQ
Q: Your job: order these 3 records by Target Concentration 10 (phage screen NGS readout), ascending. Ranked list of labels, please, in the requested order.
Result: A, B, C
(A: 0, B: 8, C: 78)

[P] DPAWSDCIWAAEHCQLI
[Q] DPAEAECILAAHICNIS
[R] DPATWHCDWAAEHCELL
Q: Your job: order these 3 records by Target Concentration 10 (phage screen NGS readout), ascending. Ranked list of labels, please, in the requested order.
Result: P, R, Q

[I] DPAHWSCEWAAEHCRLI
[II] DPAEWACEHAALTCWDQ
Q: Which is greater in Target Concentration 10 (phage screen NGS readout), the first item I or the second item II ? Let me know the label of the one you choose.
Result: II

* * *

targetOrTestSystem: MDM2 (Homo sapiens, UniProt Q00987)
Construct: made in house
Sequence (Q00987 25-109): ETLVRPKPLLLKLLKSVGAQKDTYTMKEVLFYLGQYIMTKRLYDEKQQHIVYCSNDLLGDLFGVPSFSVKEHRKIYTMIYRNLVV
assayText: Naive Library Presenter Screening (phage, NGS), MDM2
Type: binding
settings: MDM2 clusters (C82, C85); target concentration 1000 nM, second column
Numbered stars: 1 amine (or outer) side, 2 acyl side, 3 side chain; on linkers, the order of the positions; unused ones are H or OH. Bridge positions count the residues as written; N and C are the ends. Ends that are not written are not given here. Phenylene(1,4-NHCOCH2)2 = O=C(C[*:1])Nc1ccc(NC(=O)C[*:2])cc1
reportedEndpoint: interaction data at Target Concentration 1000

Study these solved cases before continuing.
chain	measured
DPAHNLCFDAAWWCHWQ (linker 7-14 via Phenylene(1,4-NHCOCH2)2 (inferred))	11
DPASADCFNAAWDCMWI (DPASADCFNAAWDCMWI-NH2; linker 7-14 via Phenylene(1,4-NHCOCH2)2 (inferred))	209

[1] DPARRECMDAAFWCQWV (DPARRECMDAAFWCQWV-NH2; linker 7-14 via Phenylene(1,4-NHCOCH2)2 (inferred))
[2] DPASAECFFAAWQCIAT (DPASAECFFAAWQCIAT-NH2; linker 7-14 via Phenylene(1,4-NHCOCH2)2 (inferred))
Q: Pick one: 1 or 2 . Which one has the lower reported interaction data at Target Concentration 1000? Let me know the label of the one you choose.
Result: 2

* * *

targetOrTestSystem: MDM2 (Homo sapiens, UniProt Q00987)
Construct: made in house
assayText: Naive Library Presenter Screening (phage, NGS), MDM2
Format: binding
settings: MDM2 clusters (C82, C85); target concentration 1000 nM, second column
Numbered stars: 1 amine (or outer) side, 2 acyl side, 3 side chain; on linkers, the order of the positions; unused ones are H or OH. Bridge positions count the residues as written; N and C are the ends. Ends that are not written are not given here. Phenylene(1,4-NHCOCH2)2 = O=C(C[*:1])Nc1ccc(NC(=O)C[*:2])cc1
reportedEndpoint: interaction data at Target Concentration 1000

chain	measured
DPASQDCFSAAWQCLQT (DPASQDCFSAAWQCLQT-NH2; linker 7-14 via Phenylene(1,4-NHCOCH2)2 (inferred))	231

[1] DPARLRCQDAAFACMWY (DPARLRCQDAAFACMWY-NH2; linker 7-14 via Phenylene(1,4-NHCOCH2)2 (inferred))
[2] DPARQDCFSAAWMCMAI (DPARQDCFSAAWMCMAI-NH2; linker 7-14 via Phenylene(1,4-NHCOCH2)2 (inferred))
Q: Pick one: 1 or 2 . Which one has the lower reported interaction data at Target Concentration 1000? Let me know the label of the one you choose.
Result: 1
(1: 37, 2: 114)

* * *

targetOrTestSystem: WWP2^HECT (Homo sapiens, UniProt O00308)
Construct: GST-TEV (N, cleaved yes); made in house; host or cells: Escherichia coli BL21 (DE3)
Sequence (O00308 492-865): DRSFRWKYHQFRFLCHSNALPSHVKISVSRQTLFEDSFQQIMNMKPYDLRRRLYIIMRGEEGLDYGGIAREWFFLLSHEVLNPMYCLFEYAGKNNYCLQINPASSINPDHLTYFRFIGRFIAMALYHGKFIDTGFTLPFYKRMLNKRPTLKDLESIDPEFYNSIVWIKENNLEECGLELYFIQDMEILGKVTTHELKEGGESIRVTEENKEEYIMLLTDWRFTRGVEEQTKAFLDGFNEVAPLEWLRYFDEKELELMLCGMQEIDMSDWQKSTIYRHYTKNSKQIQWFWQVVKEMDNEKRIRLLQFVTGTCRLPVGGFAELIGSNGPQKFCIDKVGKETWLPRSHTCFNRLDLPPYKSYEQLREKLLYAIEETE
assayText: Naive Library Presenter Screening (phage, NGS), WWP2^HECT
Type: binding
settings: WWP2 target concentration 300 nM
Numbered stars: 1 amine (or outer) side, 2 acyl side, 3 side chain; on linkers, the order of the positions; unused ones are H or OH. Bridge positions count the residues as written; N and C are the ends. Ends that are not written are not given here. Phenylene(1,4-NHCOCH2)2 = O=C(C[*:1])Nc1ccc(NC(=O)C[*:2])cc1
reportedEndpoint: interaction data at Target Concentration 300

chain	targetOrTestSystem	measured
DPALWHCLAAAETCAMF (linker 7-14 via Phenylene(1,4-NHCOCH2)2; not fully specified (C-terminus))	WWP2^HECT (Homo sapiens, UniProt O00308)	49

[a] DPATWDCNVAAHRCWFL (linker 7-14 via Phenylene(1,4-NHCOCH2)2 (inferred); not fully specified (C-terminus))
[b] DPATWDCIWAAERCWRY (linker 7-14 via Phenylene(1,4-NHCOCH2)2 (inferred); not fully specified (C-terminus))
Q: Which is greater in interaction data at Target Concentration 300, the first item a or the second item b ? Let me know the label of the one you choose.
Result: a
(a: 60, b: 4)

* * *

targetOrTestSystem: FBXW7-SKP1 (Homo sapiens, UniProt Q969H0)
Construct: FBXW7 (Uniprot ID: Q969H0, residues 263-706) with an N-terminal GST-TEV tag and C-terminal AVI tag; GST-TEV (N); made in house; host or cells: E. coli BL21 (DE3)
Sequence (Q969H0 263-706): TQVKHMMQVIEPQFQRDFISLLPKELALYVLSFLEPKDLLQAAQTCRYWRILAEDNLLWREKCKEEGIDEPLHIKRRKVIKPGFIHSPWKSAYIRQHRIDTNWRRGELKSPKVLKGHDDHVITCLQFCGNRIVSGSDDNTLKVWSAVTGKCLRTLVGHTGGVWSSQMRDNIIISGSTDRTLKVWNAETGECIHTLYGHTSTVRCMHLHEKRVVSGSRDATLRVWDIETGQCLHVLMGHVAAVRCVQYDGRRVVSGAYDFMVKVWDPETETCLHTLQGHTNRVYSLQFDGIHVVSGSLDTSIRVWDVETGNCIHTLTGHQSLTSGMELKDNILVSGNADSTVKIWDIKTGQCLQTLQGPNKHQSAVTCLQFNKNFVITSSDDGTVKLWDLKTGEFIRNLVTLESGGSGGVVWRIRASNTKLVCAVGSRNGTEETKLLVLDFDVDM
Sequence (P63208 whole entry partner, the tested form may be a part): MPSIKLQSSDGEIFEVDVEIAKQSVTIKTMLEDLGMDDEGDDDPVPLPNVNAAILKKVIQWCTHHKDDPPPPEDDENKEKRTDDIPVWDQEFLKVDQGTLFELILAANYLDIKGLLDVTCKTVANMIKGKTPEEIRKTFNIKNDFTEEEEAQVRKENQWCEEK
assayText: Naive Library Presenter Screening (phage, NGS), FBXW7-SKP1
Assay type: binding
settings: FBXW7 target concentration 300 nM
reportedEndpoint: interaction data at Target Concentration 300

chain	targetOrTestSystem	measured
DPAIRMCRDAAELCEFW	FBXW7-SKP1 (Homo sapiens, UniProt Q969H0)	4

[a] DPADMMCENAALLCEFW
[b] DPANIACDDAALLCELW
[c] DPADLTCEDAAELCEFW
Q: Your job: order these 3 records by interaction data at Target Concentration 300, ascending. Ranked list of labels, please, in the requested order.
Result: b, a, c

* * *

targetOrTestSystem: MDM2 (Homo sapiens)
Construct: made in house
assayText: Naive Library Presenter Screening (phage, NGS), MDM2
Type: binding
settings: MDM2 clusters (C82, C85); Blank = Media only, second column
Numbered stars: 1 amine (or outer) side, 2 acyl side, 3 side chain; on linkers, the order of the positions; unused ones are H or OH. Bridge positions count the residues as written; N and C are the ends. Ends that are not written are not given here. Phenylene(1,4-NHCOCH2)2 = O=C(C[*:1])Nc1ccc(NC(=O)C[*:2])cc1
reportedEndpoint: interaction data, BLANK

chain	interaction data, BLANK
DPAQQDCFLAAWDCVWQ (DPAQQDCFLAAWDCVWQ-NH2; linker 7-14 via Phenylene(1,4-NHCOCH2)2 (inferred))	0
DPAYTQCSDAAFMCWWW (linker 7-14 via Phenylene(1,4-NHCOCH2)2 (inferred))	0
DPALFSCDSAAFSCYWY (linker 7-14 via Phenylene(1,4-NHCOCH2)2 (inferred); not fully specified (C-terminus))	0
DPAHNLCFDAAWWCHWQ (linker 7-14 via Phenylene(1,4-NHCOCH2)2 (inferred))	0
DPAHRQCFTAAWRCMMT (linker 7-14 via Phenylene(1,4-NHCOCH2)2 (inferred))	0
DPAAVQCNTAAFQCYWF (linker 7-14 via Phenylene(1,4-NHCOCH2)2 (inferred))	0
DPAAQECFRAAWRCMQD (linker 7-14 via Phenylene(1,4-NHCOCH2)2 (inferred))	0
